System: BCRP-overexpressing cells (Flp-In-293/BCRP)
Experiment: Influence on anti-cancer agent (SN-38) resistance in BCRP-overexpressing cells, MTT assay
Format: cell-based
Conditions: at the concentration of 5 μmol/L; Flp-In-293/ABCG2 cells, 72 hours

# Molecule, degree of reversing resistance to SN-38
measured = [
    ("N#Cc1cc(-c2nc3c([O-])ncnc3s2)ccc1Oc1ccc(F)cc1.[K+] [Compound 1]", "about 96%"),
    ("N#Cc1cc(-c2nc3c(O)ncnc3s2)ccc1Oc1ccccc1 [Compound 5]", "about 96%"),
]
